experiment: Pharmacokinetic study in rabbits (plasma concentration by LC-MS); format: in vivo, rabbit; conditions: female, New Zealand White, rabbit, plasma, iv, 3.7 mg/kg, intravenous administration, 20 min, individual rabbits and analyses, read-out: Plasma conc.
Starred links: 1 amine or outer side, 2 acyl side, 3 side chain; linkers in the order of their positions; H or OH if unused. Positions of bridges follow the written chain, without caps; N, C: chain ends. Non-standard residues stand in square brackets, D forms with d. Residues, ends and D or L forms follow the SMILES beside them. TATA = O=C(CC[*:1])N1CN(C(=O)CC[*:2])CN(C(=O)CC[*:3])C1; Phe(4-F) = N[C@@H](Cc1ccc(F)cc1)C(=O)O; β3hR = N=C(N)NCCC[C@H](N)CC(=O)O
Value Kind: level at time molar at 20 min (nM)
The answer is to be given in nM; state only the numeric part.

// level at time molar at 20 min lookup, key: CC(C)C[C@@H]1NC(=O)[C@H](CCC(N)=O)NC(=O)[C@H](Cc2c[nH]cn2)NC(=O)[C@@H]2CSCCC(=O)N3CN(CN(C3)C(=O)CCSC[C@H](NC(=O)[C@@H](CO)NC(=O)[C@H](N)CCCNC(=N)N)C(=O)N[C@@H](Cc3ccc(F)cc3)C(=O)N[C@@H](CCCNC(=N)N)C(=O)N[C@@H](CC(C)C)C(=O)N3CCC[C@H]3C(=O)N2)C(=O)CCSC[C@@H](C(N)=O)NC(=O)C[C@H](CCCNC(=N)N)NC1=O [FXII900] (H-[dR][dS]C[Phe(4-F)]RLPCHQL[β3hR]C-NH2; linker 3-8-13 via TATA) 1260
